- systemTested: T1, His-tagged cynomolgus PD-1 ECD (cynomolgus (Macaca fascicularis), UniProt Q15116 25-170 (human entry))
- T1 construct: bought from Acro Biosystems; not shown: His tag
- T1 chain: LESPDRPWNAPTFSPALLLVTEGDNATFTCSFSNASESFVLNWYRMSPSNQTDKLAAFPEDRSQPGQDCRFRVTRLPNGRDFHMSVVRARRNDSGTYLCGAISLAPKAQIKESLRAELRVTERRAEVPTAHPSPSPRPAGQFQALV
- measurementDescription: SPR, IgG captured, monovalent PD-1 ECD analyte
measuredQuantity: log10 Kd (log10 of the value in pM)
Remember, log10 of Kd, in pM.

Memo: 12796.15376 (antibody, human IgG1, lambda, L234A L235A, V domains shown, humanized, IgG1 LALA, lambda) VH: EVQLLESGGGLVQPGGSLRLSCAASGFDFSSYTMQWVRQAPGKGLEWVGVISSTGGSTGYGPAVKGRATISRDNSKNTLYLQMNSLRAEDTAVYYCVKSVSGDAWSVDGLDAWGQGTLVTVSS VL: SYELTQDPAVSVALGQTVRITCSGGGSAYGWYQQKPGQAPVTVIYYNNQRPSDIPDRFSGSSSGNTASLTITGAQAEDEADYYCGSYDSSAVGIFGSGTKVTVLG , reported log10 Kd: 3.35

Memo: 12760.15375 (antibody, human IgG1, lambda, L234A L235A, V domains shown, humanized, IgG1 LALA, lambda) VH: EVQLLESGGGLVQPGGSLRLSCAASGFTFSTFNMVWVRQAPGKGLEYVAEISSDGSFTWYATAVKGRATISRDNSKNTVYLQMNSLRAEDTAVYYCAKSDCSSSYYGYSCIGIIDAWGQGTLVTVSS VL: SYELTQDPAVSVALGQTVRITCSGGISDDGSYYYGWFQQKPGQAPVTVIYINDRRPSNIPDRFSGSSSGNTASLTITGAQAEDEADYYCGSYDSSAGVGIFGSGTKVTVLG , reported log10 Kd: 3.84

Memo: 12748.15381 (antibody, human IgG1, lambda, L234A L235A, V domains shown, humanized, IgG1 LALA, lambda) VH: EVQLLESGGGLVQPGGSLRLSCAASGFTFSDYAMNWVRQAPGKGLEWVAGIGNDGSYTNYGAAVKGRATISRDNSKNTLYLQMNSLRAEDTAVYYCASDIRSRNDCSYFLGGCSSGFIDVWGQGTLVTVSS VL: SYELTQDPAVSVALGQTVRITCSGGSSYSYGWFQQKPGQAPVTVIYESNNRPSDIPDRFSGSSSGNTASLTITGAQAEDEADYYCGNADSSSGIFGSGTKVTVLG , reported log10 Kd: 2.00

Memo: 12865.15377 (antibody, human IgG1, lambda, L234A L235A, V domains shown, humanized, IgG1 LALA, lambda) VH: EVQLLESGGGLVQPGGSLRLSCAASGFDFSDHGMQWVRQAPGKGLEYVGVIDTTGRYTYYAPAVKGRATISRDNSKNTLYLQMNSLRAEDTAVYYCAKTTCVGGYLCNTVGSIDAWGQGTLVTVSS VL: SYELTQDPAVSVALGQTVRITCSGGGSSSYYGWYQQKPGQAPVTVIYDDTNRPSGIPDRFSGSSSGNTASLTITGAQAEDEADYYCGGYEGSSHAGIFGSGTKVTVLG , reported log10 Kd: 2.87

Memo: 12748.16124 (antibody, human IgG1, lambda, L234A L235A, V domains shown, alternative germline VL variant of 12748.15381; IgG1 LALA, lambda) VH: EVQLLESGGGLVQPGGSLRLSCAASGFTFSDYAMNWVRQAPGKGLEWVAGIGNDGSYTNYGAAVKGRATISRDNSKNTLYLQMNSLRAEDTAVYYCASDIRSRNDCSYFLGGCSSGFIDVWGQGTLVTVSS VL: SYELTQPPSVSVSPGQTARITCSGGSSYSYGWFQQKPGQAPVTVIYESNNRPSDIPERFSGSSSGTTVTLTISGVQAEDEADYYCGNADSSSGIFGSGTKVTVLG , reported log10 Kd: 1.91
